Origin of the recorded values: a melting point compilation (Tetko et al.)

Each entry below carries its reported melting point.

Examples from the recorded data:
>  <Compound>
CC(=O)Nc1cc(NC(C)=O)c(OCCO)cc1OCCO

>  <melting point>
206 °C

$$$$
>  <Compound>
Cc1noc(-c2ccccc2)c1N=C=O

>  <melting point>
79 to 81 °C

$$$$
>  <Compound>
Nc1c(F)c(F)c(-c2c(F)c(F)c(N)c(F)c2F)c(F)c1F

>  <melting point>
175 to 179 °C

$$$$
>  <Compound>
O=C(CCCN1CCN(c2ccccn2)CC1)c1ccc(F)cc1

>  <melting point>
92 °C

$$$$
>  <Compound>
COC(=O)c1ccc(C(N)=NO)cc1

>  <melting point>
167 to 168 °C

$$$$
>  <Compound>
Oc1noc2cc(Cl)ccc12

>  <melting point>
215 to 217 °C

$$$$
>  <Compound>
NS(=O)(=O)c1cc([N+](=O)[O-])c(Cl)s1

>  <melting point>
160 to 162 °C

$$$$
>  <Compound>
BrCc1nc2ccccc2nc1CBr

>  <melting point>
150 to 154 °C

$$$$
>  <Compound>
CCCCCCCCCCN(CCCCCCCCCC)CCCCCCCCCC

>  <melting point>
-5 to -3 °C

$$$$
>  <Compound>
COc1ccc(Oc2ccc([N+](=O)[O-])cc2C(=O)Cl)cc1

>  <melting point>
91 to 93 °C

$$$$

Recorded melting point (compound Nc1cc(Cl)nc(N)n1 ): 201 °C

The recorded melting point for entry CC(C)CC(N)C(=O)Nc1ccc([N+](=O)[O-])cc1 (stereo unspecified) equals 90 °C

The compound listed as O=S(=O)(O)c1ccc2ccc(S(=O)(=O)O)cc2c1 shows melting point equal to 199 °C

// sample O=c1[nH]c2ccc([N+](=O)[O-])cc2[nH]1 , its melting point was 314 to 317 °C

The recorded melting point for entry CN1C(=N)NC(=O)C1Cc1ccc(O)cc1 (stereo unspecified) equals 221 to 225 °C

====

Parameter: melting point

>  <Compound>
CC(=O)C(=CNc1ccc(C)cc1)Cc1ccccc1

>  <melting point>
103 °C

$$$$
>  <Compound>
Nc1ccc(C#Cc2ccc(N)cc2)cc1

>  <melting point>
235 to 236 °C

$$$$
>  <Compound>
Cc1nc(-c2cccc(Br)c2)cs1

>  <melting point>
56 to 60 °C

$$$$
>  <Compound>
O=C(O)C(F)(F)C(F)(F)C(F)(F)C(F)(F)C(F)(F)C(F)(F)C(F)(F)C(F)(F)C(F)(F)C(F)(F)C(F)(F)C(F)(F)F

>  <melting point>
118 to 122 °C

$$$$
>  <Compound>
CC(O)CN(CCO)CCO (stereo unspecified)

>  <melting point>
31.5 to 36 °C

$$$$
>  <Compound>
CSc1scnc1S(=O)(=O)c1ccc(C)cc1

>  <melting point>
169 to 171 °C

$$$$

melting point measured on COc1ccc(CNc2ccccn2)cc1 = 121 to 126 °C

For CC1(C)CCC(=O)CC1=O the compound record lists melting point as 103 to 105 °C

====

Parameter: melting point

// solved cases for melting point follow
>  <Molecule>
Cc1ccc(-c2ccc(C)s2)s1

>  <melting point>
65 to 68 °C

$$$$
>  <Molecule>
N#Cc1ccc(-c2ccco2)cc1

>  <melting point>
66 to 67 °C

$$$$
>  <Molecule>
O=C(C1CCCNC1)N1CCCC1 (configuration not stated)

>  <melting point>
57 to 64 °C

$$$$
>  <Molecule>
ClCc1nc(-c2ccc(Cl)cc2)no1

>  <melting point>
60 to 61 °C

$$$$

melting point reported for this molecule O=C(O)C(O)Cc1ccccc1 (configuration not stated) : 121 to 125 °C

# molecule O=C1CSc2ccccc2N1 ; its melting point = 178 to 181 °C

# melting point (molecule: Cc1ccc(S(=O)(=O)OCC#N)cc1 ) is 50 to 51 °C

====

Quick reference for melting point among some compounds

>  <Compound>
Cc1nc(C(F)(F)F)ccc1C(=O)O

>  <melting point>
137 to 142 °C

$$$$
>  <Compound>
Nc1ccccc1NC1CCN(Cc2ccccc2)CC1

>  <melting point>
111 to 112 °C

$$$$
>  <Compound>
Cc1occc1C(=O)CC#N

>  <melting point>
95 to 97 °C

$$$$
>  <Compound>
Cc1ccc(N/N=C(/C(=O)c2cccc3ccccc23)S(=O)(=O)c2ccccc2)cc1

>  <melting point>
108 to 110 °C

$$$$

Recorded result, CN(C)CCOc1ccccc1N , melting point: 37 to 40 °C

Value of melting point reported for the compound N#Cc1cccc2c(NC(=O)c3ccccc3)cccc12 is 211 to 212 °C

So, Cc1nc(-c2cccc(CO)c2)no1 ? Its melting point was 56 to 58 °C

So for N#Cc1ccc(N)c(Br)c1 , the logged melting point turned out to be 106 to 111 °C

Lookup result for COc1ccc(-c2nnc3n2NC(c2ccc([N+](=O)[O-])cc2)S3)cc1 (centres undefined) ; measured melting point: 209 to 211 °C

// melting point lookup, compound = Cn1cc(Br)c(C(=O)Cl)n1 , result: 131 to 133 °C

Consider CCCC(=O)c1ccc(Cl)cc1 . Its measured melting point is 36 to 39 °C

Record N#Cc1cccc(C(=O)Cc2cccc(Cl)c2)c1 . Reported melting point: 87.5 to 90.8 °C

# compound NC(=O)[C@@H]1CC=CC[C@H]1N (relative stereo) ; its melting point = 163 to 167 °C

The recorded melting point for CC(=O)OC1CC[C@@]2(C)C(CC[C@@H]3[C@@H]2CC[C@@]2(C)[C@H]3CC[C@]2(O)C#Cc2ccccc2)C1 (some centres undefined) is 170 to 171 °C

====

melting point for assorted molecules

Answered examples (2):
>  <Smiles text>
COC(=O)c1cc(C)c(Br)s1

>  <Measured>
35 to 37 °C

$$$$
>  <Smiles text>
CC(=O)Nc1ccc(C=Cc2nc3cc([N+](=O)[O-])ccc3n2-c2ccc(C)cc2)cc1

>  <Measured>
249 to 250 °C

$$$$

The recorded melting point for entry Cc1nc(-c2ccccc2)ncc1C(=O)NN equals 185 to 187 °C

====

Parameter: melting point

Solved entries:
>  <Compound>
CC1=CC2(C)C3C(=O)OC(=O)C3C1C1C(=O)OC(=O)C12 (stereo not drawn)

>  <Measured>
268 to 270 °C

$$$$
>  <Compound>
Cc1nn(C(C)(C)C)c(C)c1C=O

>  <Measured>
56 to 61 °C

$$$$

Item: O=C(O)c1ccc(-n2cccc2)cc1 | melting point: 288 to 291 °C

====

Some molecules, each annotated with its measured melting point.

>  <Molecule>
COc1ccc2ccccc2c1C

>  <melting point>
126 °C

$$$$
>  <Molecule>
COc1ccccc1OCC(O)COC(N)=O (stereo unspecified)

>  <melting point>
93 °C

$$$$
>  <Molecule>
COc1ccc(C(=O)Cc2ccccc2)cc1OC

>  <melting point>
87 to 88 °C

$$$$
>  <Molecule>
O=C(C(=O)c1ccc(Cl)cc1)c1ccccc1

>  <melting point>
67 °C

$$$$
>  <Molecule>
O=C(OCC(=O)N1CCC1C(=O)O)c1ccccc1 (stereo unspecified)

>  <melting point>
150 °C

$$$$

So for COCc1ccc(O)c([N+](=O)[O-])c1 , the logged melting point turned out to be 123 °C

// melting point value for NC(=O)c1ccccc1OCC(=O)O : 221 °C

Documented melting point of CC1(C)OC(=O)C(=NNc2ccccc2[N+](=O)[O-])C(=O)O1 : 165 °C

response.value for Cc1cccc2c1C(=O)OC2=O (field: melting point) = 116 °C

For Oc1ccc(F)c(Cl)c1 the molecule record lists melting point as 41 °C

// melting point value for O=C(Oc1c(F)c(F)c(F)c(F)c1F)c1cc(C(F)(F)F)ccc1N1CCOCC1 : 91 to 93 °C

melting point reading for COc1cc(Br)cc(OC)c1OC : 78.5 °C

Briefly, melting point measured for O=[N+]([O-])c1ccc(N/N=C2\C=C(c3ccccc3)c3ccccc32)cc1 : 265 to 266 °C

The molecule identified as O=NN1CCOCC1 registered its melting point at 29 °C

====

Listing of entries alongside the reported melting point.
Provide the reading as a plain figure in °C.

>  <Smiles text>
C[C@]1(O)C#CCCCCCC#C[C@@](C)(O)CC1

>  <Parameter>
melting point

>  <Measured>
100

$$$$

Then there is this molecule:
The molecule listed as Oc1c(-c2ccc3ccccc3c2O)ccc2ccccc12 has a reported melting point of 300

====

Below, each of the compounds is paired with its reported melting point value.

Answered cases to consult:
>  <Compound>
Nc1cccc(-c2ncccn2)c1

>  <melting point>
99.5 to 102 °C

$$$$
>  <Compound>
CC(=O)c1ccc(N2CCCCC2)cc1

>  <melting point>
84 to 90 °C

$$$$
>  <Compound>
COC1=C(OC)C(C(COS(=O)(=O)c2ccc(C)cc2)OS(=O)(=O)c2ccc(C)cc2)OC1=O (configuration not stated)

>  <melting point>
144 to 146 °C

$$$$
>  <Compound>
Cc1ccc(S(=O)(=O)NC(=O)NN2CCCCCC2)cc1

>  <melting point>
170 °C

$$$$
>  <Compound>
CC(=O)CC(=O)OCc1ccc([N+](=O)[O-])cc1

>  <melting point>
45 to 46.5 °C

$$$$
>  <Compound>
Cc1c(C)c(C)c2c(c1C)CC1(OC2=O)C(=O)c2ccccc2C1=O

>  <melting point>
257 °C

$$$$
>  <Compound>
Cc1cscc1S(=O)(=O)c1ccc(Cl)cc1

>  <melting point>
102 to 104 °C

$$$$
>  <Compound>
O=S(=O)(c1ccccc1)c1cccs1

>  <melting point>
123 °C

$$$$
>  <Compound>
CN(CC(=O)O)C(=N)N

>  <melting point>
255 °C

$$$$
>  <Compound>
CC1NC(C(=O)O)Cc2c1[nH]c1ccccc21 (configuration not stated)

>  <melting point>
243 to 245 °C

$$$$

O=C(Nc1ccccc1)N(C(=O)C1Cc2ccccc21)c1ccccc1 (configuration not stated) yielded melting point of 158 °C

Just so you know, measured melting point for Cc1cc(N)n[nH]1 came out at 41 to 43 °C
